Tested on: sterol synthesis by rat liver homogenate
Assay: CSI screen: inhibition of sterol synthesis (14C-acetate incorporation into nonsaponifiable lipid) by rat liver homogenate
Assay type: biochemical
Settings: one-hour period, footnote: adjusted for a standard IC50 value for compactin (internal standard)
Procedure: The ability of compounds of the present invention to inhibit the biosynthesis of cholesterol was measured by two methods. A first method (designated CSI screen) utilized the procedure described by R. E. Dugan et al., Archiv. Biochem. Biophys., (1972), 152, 21-27. […] The rat livers are homogenized, and the incorporation of cholesterol-^14 C-acetate into nonsaponifiable lipid by the rat liver homogenate is measured. […]
pIC50: −log10 of the molar value.
experimental_endpoint: pIC50

Recorded results for 2 compounds are shown here.
CC(C)c1ccc(-c2ccc(F)cc2)n1CC[C@H]1C[C@H](O)CC(=O)O1 (relative stereo)	6.32
CC(C)c1c(Cl)c(Cl)c(-c2ccc(F)cc2)n1CC[C@H]1C[C@H](O)CC(=O)O1 (relative stereo)	6.80

(A) COC(=O)c1c(C(=O)OC)c(C(C)C)n(CC[C@@H]2C[C@@H](O)CC(=O)O2)c1-c1ccc(F)cc1 (relative stereo)
(B) CC[C@H](C)C(=O)O[C@H]1CCC=C2C=C[C@H](C)[C@H](CC[C@@H]3C[C@@H](O)CC(=O)O3)[C@H]21 [Compound 5, Compactin, reference compound]
(C) CC(C)c1c(Br)c(Br)c(-c2ccc(F)cc2)n1CC[C@H]1C[C@H](O)CC(=O)O1 (relative stereo)
Input: Order the entries by their reported pIC50, beginning at the minimum. Give the labels in the order specified.
Output: C, A, B
